# pIC50 annotations
ASSAYED_TARGET: α4β1 integrin (Homo sapiens (Human), UniProt P05556+P13612)
Sequence (P13612 34-1032): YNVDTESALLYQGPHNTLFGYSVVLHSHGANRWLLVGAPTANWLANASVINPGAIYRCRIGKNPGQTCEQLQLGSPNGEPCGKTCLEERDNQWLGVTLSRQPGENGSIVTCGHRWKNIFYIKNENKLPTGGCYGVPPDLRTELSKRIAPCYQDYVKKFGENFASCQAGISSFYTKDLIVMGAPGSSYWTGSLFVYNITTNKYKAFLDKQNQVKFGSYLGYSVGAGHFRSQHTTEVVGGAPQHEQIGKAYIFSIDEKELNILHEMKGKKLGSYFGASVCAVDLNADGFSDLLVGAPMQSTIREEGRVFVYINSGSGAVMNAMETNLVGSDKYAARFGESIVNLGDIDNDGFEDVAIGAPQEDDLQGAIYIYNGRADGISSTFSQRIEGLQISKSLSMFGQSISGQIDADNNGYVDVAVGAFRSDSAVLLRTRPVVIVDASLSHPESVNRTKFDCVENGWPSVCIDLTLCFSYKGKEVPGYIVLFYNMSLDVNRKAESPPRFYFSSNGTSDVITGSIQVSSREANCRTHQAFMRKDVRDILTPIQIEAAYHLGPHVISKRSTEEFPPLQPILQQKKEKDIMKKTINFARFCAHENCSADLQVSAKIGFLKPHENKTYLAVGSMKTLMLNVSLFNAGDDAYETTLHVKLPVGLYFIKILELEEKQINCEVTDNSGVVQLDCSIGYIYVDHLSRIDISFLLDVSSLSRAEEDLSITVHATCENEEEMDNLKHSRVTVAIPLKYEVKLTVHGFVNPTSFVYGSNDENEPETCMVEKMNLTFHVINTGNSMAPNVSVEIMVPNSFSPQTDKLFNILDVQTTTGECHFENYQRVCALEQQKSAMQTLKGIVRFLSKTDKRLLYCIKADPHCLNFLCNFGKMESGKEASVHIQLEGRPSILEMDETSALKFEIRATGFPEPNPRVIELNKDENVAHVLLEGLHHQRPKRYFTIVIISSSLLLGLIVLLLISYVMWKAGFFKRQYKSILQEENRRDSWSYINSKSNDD
Sequence (P05556 21-798): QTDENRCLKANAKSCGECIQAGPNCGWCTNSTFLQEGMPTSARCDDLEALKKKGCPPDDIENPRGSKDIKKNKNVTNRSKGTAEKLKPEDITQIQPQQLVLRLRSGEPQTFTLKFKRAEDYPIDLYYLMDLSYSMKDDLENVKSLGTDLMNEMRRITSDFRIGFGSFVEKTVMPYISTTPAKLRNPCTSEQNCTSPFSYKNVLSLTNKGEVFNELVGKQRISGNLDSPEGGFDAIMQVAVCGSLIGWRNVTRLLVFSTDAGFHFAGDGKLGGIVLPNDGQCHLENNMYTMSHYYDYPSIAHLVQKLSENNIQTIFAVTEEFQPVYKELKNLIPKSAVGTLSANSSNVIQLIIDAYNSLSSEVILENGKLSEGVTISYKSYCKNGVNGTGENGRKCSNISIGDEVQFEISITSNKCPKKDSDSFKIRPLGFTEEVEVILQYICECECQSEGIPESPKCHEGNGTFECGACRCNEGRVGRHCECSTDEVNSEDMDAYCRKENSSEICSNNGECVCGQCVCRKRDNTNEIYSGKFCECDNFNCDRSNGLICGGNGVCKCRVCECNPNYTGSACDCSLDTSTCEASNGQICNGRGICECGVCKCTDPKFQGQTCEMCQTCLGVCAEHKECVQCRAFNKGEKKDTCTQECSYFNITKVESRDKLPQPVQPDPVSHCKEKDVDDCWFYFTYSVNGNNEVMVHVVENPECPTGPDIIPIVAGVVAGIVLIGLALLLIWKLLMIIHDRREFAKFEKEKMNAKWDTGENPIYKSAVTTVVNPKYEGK
PROTOCOL_SUMMARY: Integrin Adhesion Assay: Protocol 5 (VCAM-coated plate, RPMI-8866 cells with stable LOF mutation of the ITGB7 gene)
Assay type: cell-based
CONDITION_INFO: Protocol 5; RPMI-8866 cells with LOF mutation of ITGB7, VCAM; read-out: Mean IC50 α4β1 KO
pIC50: −log10 of the molar value.

MOLECULE | pIC50
CN(C)CCc1cccc2c(-c3cccc4c(C[C@H](NC(=O)C5(C(F)(F)F)CCN(CC(F)(F)F)CC5)C(=O)O)cccc34)nccc12 | 6.00 to 7.00
O=C(N[C@@H](Cc1cccc2c(-n3c(C(F)(F)F)cccc3=O)cccc12)C(=O)O)c1c(F)cccc1F | < 6.00
O=C(O)[C@H](Cc1cccc2c(-c3ncc(CCCN4CCCCC4)c4ccccc34)cccc12)NC(=O)C1(C(F)(F)F)CCN(CC(F)(F)F)CC1 | < 6.00
COC(=O)[C@H](Cc1cccc2c(-c3c(OC)ccc(CN4CCC(C)C(F)(F)CC4)c3OC)cccc12)NC(=O)C1(C(F)(F)F)CCN(CC(F)(F)F)CC1 (stereo partly drawn) | 6.00 to 7.00
CN(C)Cc1ccc2c(c1)c(C(F)(F)F)c(-c1cccc3c(C[C@H](NC(=O)c4c(F)cc(N5CCOC[C@@H]5C(F)(F)F)cc4F)C(=O)O)cccc13)c(=O)n2C | 6.00 to 7.00

Reported α4β1 integrin (Homo sapiens (Human), UniProt P05556+P13612) pIC50 for item COc1cc(CN2CCCCC2)cnc1-c1cccc2c(C[C@H](NC(=O)c3c(C)cccc3F)C(=O)O)cccc12 was < 6.00

* * *

ASSAYED_TARGET: α4β1 integrin (Homo sapiens (Human), UniProt P05556+P13612)
PROTOCOL_SUMMARY: Integrin Adhesion Assay: Protocol 5 (VCAM-coated plate, RPMI-8866 cells with stable LOF mutation of the ITGB7 gene)
Type: cell-based
CONDITION_INFO: RPMI-8866 cells with stable LOF mutation of the ITGB7 gene; read-out: Mean IC50 α4β1 KO^b
# IC50 annotations

MOLECULE | IC50
Cn1c(=O)c(-c2cccc3c(C[C@H](NC(=O)C4(C(F)(F)F)CCN(C(c5ccccc5)C(F)(F)F)CC4)C(=O)O)cccc23)c(C(F)(F)F)c2ccccc21 (stereo partly drawn) | > 1000 nM
COc1ccc(CN(C)C)c(OC)c1-c1cccc2c(C[C@H](NC(=O)c3c(C)cc(C4CC(F)(F)C4)cc3F)C(=O)O)cccc12 | > 1000 nM
O=C(O)[C@H](Cc1cccc2c(-c3ncc(CN4CCCCC4)c4ccccc34)cccc12)NC(=O)C1(C(F)(F)F)CCN(CC2(C(F)(F)F)CC2)CC1 | > 1000 nM

molecule COc1cccc(CN2CCCCC2)c1-c1cccc2c(C[C@H](NC(=O)c3c(F)cccc3C(C)C)C(=O)O)cccc12 , IC50 observed: 100 to 1000 nM

molecule O=C(O)[C@H](Cc1cccc2c(-c3cc(CN4CCCC4)cc4ccncc34)cccc12)NC(=O)C1(C(F)(F)F)CCN(C2COC2)CC1 , IC50 observed: > 1000 nM

molecule Cn1c(=O)c(-c2cccc3c(C[C@H](NC(=O)[C@]4(C)CC[C@@H](N5CCS(=O)(=O)CC5)CC4)C(=O)O)cccc23)c(C(F)(F)F)c2ccccc21 , IC50 observed: > 1000 nM
